System: barnyardgrass (Echinochloa crus-galli)
Assay: Test A postemergence, visual injury rating 0-100
Assay type: in vivo
Conditions: 500 g ai/ha, 0 to 100 scale
READOUT NAME: Barnyardgrass plant response rating
API doc: respond with a numeric literal and nothing else, no unit.

Worked examples follow.
COMPOUND | VALUE
CC1=[N+]([O-])C(C(=O)Nc2cccc(F)c2F)C(c2ccc(C(F)(F)F)cc2F)C1 (stereo not shown) | 90
CC1=[N+]([O-])C(C(=O)Nc2cccc(F)c2F)C(c2ccc(C#N)cc2)C1 (racemic) | 60
CC1=[N+]([O-])C(C(=O)Nc2cccc(F)c2F)C(c2c(F)cccc2Cl)C1 (racemic) | 0

Below: the item to evaluate.
Prompt line: I'd like to know its Barnyardgrass plant response rating. The compound in question is CC1=[N+]([O-])C(C(=O)Nc2cccc(F)c2F)C(c2ccc(=O)n(Cc3ccc(Cl)cc3)c2)C1 (racemic)
Response line: 0

----------
System: ryegrass, Italian (Italian ryegrass, Lolium multiflorum)
Assay: Test A preemergence, visual injury rating 0-100
Format: in vivo
Settings: 500 g ai/ha, 0 to 100 scale
Description: […]
READOUT NAME: Ryegrass, Italian plant response rating
API doc: respond with a numeric literal and nothing else, no unit.

MOLECULE | Ryegrass, Italian plant response rating
CC1=[N+]([O-])C(C(=O)Nc2cccc(F)c2F)C(c2ccccc2)C1 (racemic) | 0
CC1=[N+]([O-])C(C(=O)Nc2cccc(F)c2F)C(c2cccc(C#N)c2)C1 (racemic) | 0
CC1=[N+]([O-])C(C(=O)Nc2cccc(F)c2F)C(c2ccc(C)c(C)c2)C1 (racemic) | 70
CC1=[N+]([O-])C(C(=O)Nc2cccc(F)c2F)C(c2cccc(C)c2)C1 (racemic) | 50
CC1=[N+]([O-])[C@@H](C(=O)Nc2ccccc2F)[C@H](c2ccc(C(F)(F)F)cc2)C1 (relative stereo) | 70
CC1=[N+]([O-])C(C(=O)Nc2cccc(F)c2F)C(c2ccccc2C)C1 (racemic) | 0

Prompt line: I'd like to know its Ryegrass, Italian plant response rating. The molecule in question is CC1=[N+]([O-])C(C(=O)Nc2cccc(F)c2F)C(c2ccccc2F)C1 (racemic)
Response line: 0

----------
System: wheat (Triticum aestivum)
Test: Test A postemergence, visual injury rating 0-100
Assay type: in vivo
Settings: 125 g ai/ha, 0 to 100 scale
Entries annotated with measured Wheat plant response rating
API doc: respond with a numeric literal and nothing else, no unit.

MOLECULE | Wheat plant response rating
CC1=[N+]([O-])C(C(=O)Nc2cccc(F)c2F)C(c2cc(C)c(F)c(C)c2)C1 (racemic) [Compound 111] | 50
CC1=[N+]([O-])C(C(=O)Nc2cccc(F)c2C#N)C(c2ccc(C(F)(F)F)cc2)C1 (racemic) [Compound 34] | 0
COc1cc(C2CC(C)=[N+]([O-])C2C(=O)Nc2cccc(F)c2F)cc(C)n1 (racemic) [Compound 57] | 20
CC1=[N+]([O-])C(C(=O)Nc2cccc(F)c2F)C(c2ccc(Br)cc2)C1 (racemic) [Compound 20] | 0
CC1=[N+]([O-])C(C(=O)Nc2cccc(F)c2F)C(c2ccc(C(F)(F)F)c(Br)c2)C1 (racemic) [Compound 73] | 0

Prompt line: I'd like to know its Wheat plant response rating. The molecule in question is CC1=[N+]([O-])C(C(=O)Nc2ccc(F)c(F)c2F)C(c2ccc(C(F)(F)F)cc2)C1 (racemic) [Compound 38]
Response line: 30

Prompt line: I'd like to know its Wheat plant response rating. The molecule in question is CC1=[N+]([O-])C(C(=O)Nc2cccc(F)c2F)C(c2cc(F)cc(Oc3ccc(Cl)nc3)c2)C1 (racemic) [Compound 50]
Response line: 0

Prompt line: I'd like to know its Wheat plant response rating. The molecule in question is CC1=[N+]([O-])C(C(=O)Nc2cccc(F)c2F)C(c2cc(F)c(F)c(Oc3ncc(F)cn3)c2)C1 (racemic) [Compound 85]
Response line: 50

Prompt line: I'd like to know its Wheat plant response rating. The molecule in question is CC1=[N+]([O-])C(C(=O)Nc2cccc(F)c2F)C(c2ccccc2)C1 (racemic) [Compound 16]
Response line: 0

Prompt line: I'd like to know its Wheat plant response rating. The molecule in question is CCC1=[N+]([O-])C(C(=O)Nc2cccc(F)c2F)C(c2ccc(C(F)(F)F)cc2)C1 (racemic) [Compound 120]
Response line: 0

Prompt line: I'd like to know its Wheat plant response rating. The molecule in question is CC1=[N+]([O-])C(C(=O)Nc2cccc(F)c2F)C(c2ccc(C(F)(F)F)cn2)C1 (racemic) [Compound 88]
Response line: 0

Prompt line: I'd like to know its Wheat plant response rating. The molecule in question is CC1=[N+]([O-])C(C(=O)Nc2cccc(F)c2F)C(c2cccc(Br)c2)C1 (racemic) [Compound 19]
Response line: 0

Prompt line: I'd like to know its Wheat plant response rating. The molecule in question is CC1=[N+]([O-])C(C(=O)Nc2cccc(F)c2F)C(c2ccc(C#N)cc2)C1 (racemic) [Compound 22]
Response line: 0

Prompt line: I'd like to know its Wheat plant response rating. The molecule in question is CC1=[N+]([O-])C(C(=O)Nc2cccc(F)c2F)C(c2cccc(C#N)c2)C1 (racemic) [Compound 23]
Response line: 20

Prompt line: I'd like to know its Wheat plant response rating. The molecule in question is CC1=[N+]([O-])C(C(=O)Nc2cccc(F)c2F)C(c2cc(C)n(Cc3ccc(Cl)cc3)c(=O)c2)C1 (racemic) [Compound 86]
Response line: 0
